molecular target: c-Src SH2; assay: SH2 binding enrichment of the phosphorylated peptide, bacterial display (enrichment ratio); higher = better substrate or ligand; peptides without Tyr show the background
METRIC: SH2 binding enrichment

Would you please look over these solved cases?
- CHAIN_SEQUENCE: "RAYRRYLLKQK [SCN2A_Y1919]"
  SH2 binding enrichment: 0.514
- CHAIN_SEQUENCE: "KLIETYSSKNF [PLP1_Y50_F51S_YF]"
  SH2 binding enrichment: 0.422
- CHAIN_SEQUENCE: "HRERPYGGGGG [FUS_Y526_R521H]"
  SH2 binding enrichment: 1.18
- CHAIN_SEQUENCE: "PFTRNYYVWAV [CYBA_Y87_R90W]"
  SH2 binding enrichment: 0.899
- CHAIN_SEQUENCE: "NKEPRYQEEPP [TJP2_Y479_D482E]"
  SH2 binding enrichment: 0.568
- CHAIN_SEQUENCE: "WNDLDYVDSRR [GAA_Y407_M408V]"
  SH2 binding enrichment: 0.643
- CHAIN_SEQUENCE: "NVVVPYEPPEV [TP53_Y220_S215N]"
  SH2 binding enrichment: 0.742

I. WCSNDHLGMSR [ALAS2_Y199_Y199H]
II. LLVVLYKYRCF [PSEN1_Y154_Y159F]
Which value of SH2 binding enrichment is greater, the one for I or the one for II ? Reply with the label of the item you choose.
II
(II: 1.29, I: 0.684)

---

molecular target: SHP2-C SH2; experiment: SH2 binding enrichment of the phosphorylated peptide, bacterial display (enrichment ratio); higher = better substrate or ligand; peptides without Tyr show the background
METRIC: SH2 binding enrichment

- CHAIN_SEQUENCE: "TGVWDYIHVVD [GALE_Y241_R239W]"
  OBSERVED_MEASUREMENT: 0.552
- CHAIN_SEQUENCE: "ESVNTYLQTSP [NAT1_Y208_M205V]"
  OBSERVED_MEASUREMENT: 0.527
- CHAIN_SEQUENCE: "FHKALYTVRSY [PDE6C_Y266]"
  OBSERVED_MEASUREMENT: 0.87
- CHAIN_SEQUENCE: "RLAKRYLIWEC [SCN5A_Y694_Q692K]"
  OBSERVED_MEASUREMENT: 0.654
- CHAIN_SEQUENCE: "MWGSDYVHLSR [MAP3K4_Y582_Q584H]"
  OBSERVED_MEASUREMENT: 0.746
- CHAIN_SEQUENCE: "GHNDVYISEHV [GRIN2A_Y1423]"
  OBSERVED_MEASUREMENT: 0.535
- CHAIN_SEQUENCE: "EVDETYVPKEF [ALB_Y521]"
  OBSERVED_MEASUREMENT: 0.651
- CHAIN_SEQUENCE: "ALTRSYVREKV [CYP2C8_Y243_I244V]"
  OBSERVED_MEASUREMENT: 0.551
- CHAIN_SEQUENCE: "ELELLYLDRNS [NYX_Y284]"
  OBSERVED_MEASUREMENT: 0.7
- CHAIN_SEQUENCE: "TRSFKCLLLSM [NF1_Y491_Y491C_YF]"
  OBSERVED_MEASUREMENT: 0.787
- CHAIN_SEQUENCE: "EILLSYPRTGF [TGM1_Y365_L366P_YF]"
  OBSERVED_MEASUREMENT: 0.83
- CHAIN_SEQUENCE: "EVESPYEVRDY [GIGYF2_Y1168_H1171R]"
  OBSERVED_MEASUREMENT: 0.885
- CHAIN_SEQUENCE: "WCSNDHLGMSR [ALAS2_Y199_Y199H]"
  OBSERVED_MEASUREMENT: 0.811
- CHAIN_SEQUENCE: "PSAEGYQDVRD [ABLIM1_Y439]"
  OBSERVED_MEASUREMENT: 0.621

---

target: Fyn (UniProt P06241); assay: phosphorylation enrichment, bacterial display (enrichment ratio); higher = better substrate or ligand; peptides without Tyr show the background
Sequence (P06241 whole entry, looked up): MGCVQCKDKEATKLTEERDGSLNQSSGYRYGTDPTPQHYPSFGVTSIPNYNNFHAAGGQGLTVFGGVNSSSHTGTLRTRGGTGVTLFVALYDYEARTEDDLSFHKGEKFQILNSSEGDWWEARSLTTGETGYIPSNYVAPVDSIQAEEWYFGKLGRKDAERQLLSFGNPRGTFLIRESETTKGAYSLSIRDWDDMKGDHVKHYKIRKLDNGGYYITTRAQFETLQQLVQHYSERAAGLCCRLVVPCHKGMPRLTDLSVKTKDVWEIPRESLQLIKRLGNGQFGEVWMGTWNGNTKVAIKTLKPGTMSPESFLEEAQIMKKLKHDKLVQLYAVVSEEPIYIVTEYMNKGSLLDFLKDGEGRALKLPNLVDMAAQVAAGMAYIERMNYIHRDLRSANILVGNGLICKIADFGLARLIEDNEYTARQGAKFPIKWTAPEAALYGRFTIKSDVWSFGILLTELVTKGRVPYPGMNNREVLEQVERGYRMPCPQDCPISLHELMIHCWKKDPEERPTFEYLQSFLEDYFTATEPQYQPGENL
Listing of entries alongside the reported phosphorylation enrichment.
Response field accepts a number only; no unit should be typed.

- CHAIN_SEQUENCE: "RRGMPYGGLGD [TGM1_Y312_R315L]"
  OBSERVED_MEASUREMENT: 0.503
- CHAIN_SEQUENCE: "PAIERYVVVCK [RHO_Y136_L131P]"
  OBSERVED_MEASUREMENT: 0.612
- CHAIN_SEQUENCE: "IHADICRWFNI [MARS1_Y344_Y344C]"
  OBSERVED_MEASUREMENT: 0.395
- CHAIN_SEQUENCE: "GYIISYREEEQ"
  OBSERVED_MEASUREMENT: 0.546
- CHAIN_SEQUENCE: "CTSIHYNFMCN [TP53_Y234_T231S_YF]"
  OBSERVED_MEASUREMENT: 0.516
- CHAIN_SEQUENCE: "LKSEMYQKLLK [RGS13_Y146]"
  OBSERVED_MEASUREMENT: 0.56
- CHAIN_SEQUENCE: "TGVWDYIHVVD [GALE_Y241_R239W]"
  OBSERVED_MEASUREMENT: 0.47
- CHAIN_SEQUENCE: "GNLLIYTEFGK [HGD_Y166]"
  OBSERVED_MEASUREMENT: 7.36
- CHAIN_SEQUENCE: "LEAFQYIGESQ [MSH2_Y856_E853A]"
  OBSERVED_MEASUREMENT: 0.625
- CHAIN_SEQUENCE: "DHAGEYGAEAL [HBA1_Y25_A20D]"
  OBSERVED_MEASUREMENT: 0.427

Give reported phosphorylation enrichment for PFSNPYENSLI [EPOR_Y489_YF] (Fyn (UniProt P06241))
1.04

Jot down phosphorylation enrichment (Fyn (UniProt P06241)) of KKRSSYGNSSD [SELENOK_Y52_R50S] .
0.438

Write phosphorylation enrichment of WCSNDHLGMSR [ALAS2_Y199_Y199H] ; system used: Fyn (UniProt P06241)
0.434

Please respond with reported phosphorylation enrichment (system Fyn (UniProt P06241)) for PHMQTYEVDPN [SDHB_Y61_L65P] .
0.586

Please report phosphorylation enrichment with Fyn (UniProt P06241) for item RSRSPYSPVFR [CDK13_Y399_L403F] .
0.6

---

test system: AncSZ; assay: phosphorylation enrichment, bacterial display (enrichment ratio); higher = better substrate or ligand; peptides without Tyr show the background
Reported phosphorylation enrichment values follow for various sequences
Answer with a bare number; do not write a unit.

- CHAIN_SEQUENCE: "DPLLTYLFPPK [LMNA_Y481_R482L]"
  METRIC: "phosphorylation enrichment"
  OBSERVED_MEASUREMENT: 2.2
- CHAIN_SEQUENCE: "DAICFYRMENA [NPHS2_Y195_YF]"
  METRIC: "phosphorylation enrichment"
  OBSERVED_MEASUREMENT: 1.14
- CHAIN_SEQUENCE: "INASGYRVGPA [ACSM1_Y477_I479V]"
  METRIC: "phosphorylation enrichment"
  OBSERVED_MEASUREMENT: 0.652
- CHAIN_SEQUENCE: "LFMGDYVGRGF [PPP2CA_Y86_D88G_YF]"
  METRIC: "phosphorylation enrichment"
  OBSERVED_MEASUREMENT: 1.38
- CHAIN_SEQUENCE: "EVEPTYVVLFD [ERCC4_Y577_R576T_YF]"
  METRIC: "phosphorylation enrichment"
  OBSERVED_MEASUREMENT: 1.51

Give recorded phosphorylation enrichment. QELRRYLKSGV [MICA_Y194]
0.652

Using the record for FKGIVYSVSSD [DCX_Y70_A71S] , state its measured phosphorylation enrichment.
1.09

Given SMGHRYIEVFK [HNRNPF_Y82] , respond with its phosphorylation enrichment.
0.744

Annotate the sequence EILLSYLRTGY [TGM1_Y365] with its measured phosphorylation enrichment.
1.06

Give the measured phosphorylation enrichment for GLRQGYFVEAQ [APCS_Y142]
0.945

# return recorded phosphorylation enrichment for entry KFLENYFDLKK [MMP3_Y41_YF]
1.06

---

Listed here are sequences together with their documented phosphorylation enrichment.
biological target: Fyn (UniProt P06241); assay: phosphorylation enrichment, bacterial display (enrichment ratio); higher = better substrate or ligand; peptides without Tyr show the background
Field format: numeric only.

Consider the following illustrative entries.
- CHAIN_SEQUENCE: "RFLRGYRQDAF [HLA-A_Y137_YF]"
  phosphorylation enrichment: 0.489
- CHAIN_SEQUENCE: "RQGQAYRGQRV [TSHR_Y706_A703G]"
  phosphorylation enrichment: 0.509
- CHAIN_SEQUENCE: "DTFDPYLDVAL [USP36_Y268_YF]"
  phosphorylation enrichment: 0.704
- CHAIN_SEQUENCE: "WQQQSYLASGI [CTNNB1_Y30_D32A]"
  phosphorylation enrichment: 0.487

State the measured phosphorylation enrichment (Fyn (UniProt P06241)) of MRALIYNSSTV [PLEKHA7_Y243_A248V]
0.714

Provide measured phosphorylation enrichment on Fyn (UniProt P06241) for DSGRDYVSQFE [APOA1_Y53] please.
0.489
